System: MS2 coat protein
Assay: apparent KD of MS2 coat protein; designed switch direction (-1 OFF switch, 1 ON switch): -1; higher = weaker reporter binding
Settings: input ligand: FMN 200 uM
Assign class by apparent KD of MS2 coat protein: not lower than 40 nM means YES; lower than 40 nM means NO.

sequence_chain="AAGAAACAUGAGGAUCACCCAUGUGAGGAUAUGGCCCGCCCGGCGUGAGCUAAAUAAAUCAGAAGGCACAAAGG [salish99_ex1_r4_010] (Eterna round: R97, puzzle: Exclusion 1)" cat=NO
sequence_chain="ACUUGUCAUGAGGAUAUGCGACGCAACGGUGGAGCAGAAGGCGUGACAUGAGGAUCACCCAUGUCAGUUCGCGA [eternacac ex6r4 sub32] (Eterna round: R97, puzzle: Exclusion 6)" cat=YES
sequence_chain="UAAGAAUACCGAGGAUAUGGUAGUACAUAUUUACCAGAAGGCGGACUCAACAUGAGGAUCACCCAUGUAUAAAGGGUAUUAGGU [JR_ExcNG1_Sub043] (Eterna round: R96, puzzle: Exclusion NG 1)" cat=YES
sequence_chain="AUAGUGUGAGGAUAUCGGACCAGUCCAGUUAGGAGCAGGAUCGAGAAGGUACAUGAGGAUCACCCAUGUGACCA [Eternabot (L2) Solution 8] (Eterna round: R97, puzzle: Exclusion 4)" cat=NO
sequence_chain="UAAACAAGCGAAAGAUCCCACAUGAGGAUCACCCAUGUGCUCGUCUUAUAAGGUACUGUGACGAAAGUCACGGUACC [Sensor 3, v1 - 91 v19] (Eterna round: R97, puzzle: Sensor, turn-off variant 1)" cat=NO

====

Test system: K4 kissing-loop RNA reporter;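 note: bound reporter read as fluorescence of individual clusters on recovered sequencing chips by microscopy, with normalized cluster intensities fitted with a binding model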
Experiment: apparent KD of K4 kissing-loop reporter; higher = weaker reporter binding
Settings: Eterna round: R107; input ligand: none
Entries annotated with measured apparent KD of K4 kissing-loop reporter
parameter: apparent KD of K4 kissing-loop reporter (nM)

sequence_chain="UUUAGGAGUGGUGUUGAUUAGGGAGCGGAAGGAGCGCCGAGGAAGGCAGGUAGGUCGCCGGAUUAUAGUGAUGUUAUGAAGAGGG [ExArg.M]" numeric_readout=792
sequence_chain="GUAUGUGGAAACACGUACUUAUAUCCUCGACAGGAUAUGCGGAAACGCAGAAGGGUCGCCAACGAGUUUAUCCAGUGAUGUUGGA [Ex FMN A 15]" numeric_readout=362
sequence_chain="UGAUACCAGACUGAUACCAGCUAGUGAUGUUAGCUGAAAUCAGGGUCAAAGACCCUGUCUAGCCCUUGGCAGCAGUCUGGUAUCU [TheoBX 9 #SwitchBubble #StaticStem]" numeric_readout=98.3
sequence_chain="AGCCAGCGUACAUCACUCUGGCUGCUGGAUACCAGCUCGGAAACGAGCCCUUGGCAGCCAGAACUUGCAGUGAUGUUGCAAGUAA [Design12]" numeric_readout=402

====

Test system: MS2 coat protein
Assay: apparent KD of MS2 coat protein; higher = weaker reporter binding
Details: Eterna round: R107; input ligand: arginine 13.2 mM
Entries annotated with measured apparent KD of MS2 coat protein
parameter: apparent KD of MS2 coat protein (nM)

sequence_chain="CCAUCUACAUCGGCCGCCACUGAACCAAGGAGACAUGAGGAUCACCCAUGUAUGGGAAACCAUCAUAGGACCGGGAUGAUCUACC [doubleHook]" unit_name=nM numeric_readout=95.2
sequence_chain="CGAAUACCAAUUGAUACCAGCAUGUUAACAUGAGGAUCACCCAUGUUAAGGAUAACAUAAUGCCCUUGGCAGCAACGUAAAUUCG [Aa]" unit_name=nM numeric_readout=19.2
sequence_chain="GGGAGAUGAAAAGAUUGAGCUAAAACAGAAGGAGCGUGAAUUAACACAGGUAGGUCGCUGACAACAUGAGGAUCACCCAUGUAUU [Same State Arginine A GF4]" unit_name=nM numeric_readout=24.9
sequence_chain="CCUGAUGAGUCGGCCGCCACUCCAGUUGUAUUACAGGUUUUCGUAGACAUGAGGAUCACCCAUGUGAGGACCGGGACACACACAG [theeternabot_exclusion_MS2_Trp_B_21]" unit_name=nM numeric_readout=11.7
sequence_chain="UCGUGAGUUUCGGAUACCAGUGUUGUCGAUACAUGAGGAUCACCCAUGUUAGAGGAUGUACACCCUUGGCAGCCGGCUGUGGCGG [lplmullin]" unit_name=nM numeric_readout=15.8
sequence_chain="AAUGUAUUCCACAUGAGGAUCACCCAUGUGCGAGGACCGGUACGGCCGCCACUCGGUGUUGGGAUCAGUUCUGAAUACAUUAAUG [XTryp A #24]" unit_name=nM numeric_readout=19.1
sequence_chain="AUAACAUGAGGAUCACCCAUGUAGAGUGAUACCAGACUACGUAAUGUCCCUUGGCAGCACAAGUAAAGUUACGAAUAUUGAUAGA [JR_SSTheophyA_Sub003]" unit_name=nM numeric_readout=123
sequence_chain="CCGCACAUGAGGAUCACCCAUGUCAGGGAUACCAGCCCAGACAUGGGCCCUUGGCAGCUUUGUAGCUGACGAAAGUCAGCAGCGG [Omei Theo A SS A v2]" unit_name=nM numeric_readout=17.6
sequence_chain="AGCACUGUGACGGCCGCCACUAUAUUAGGGUGGUAAGGUUCAUAAAUACAUGAGGAUCACCCAUGUAGGACCGGGUCUCAGUGCA [Omei Trp Exc B A v2]" unit_name=nM numeric_readout=11.8
sequence_chain="AACGUAUACAGAAGGAGCGUGAUUUAUAUUACUCAUUCAUAUACAUGAGGAUCACCCAUGUCACAGGUAGGUCGCUGUAUUCGUA [JR_ExcArginiB_Sub021]" unit_name=nM numeric_readout=76
sequence_chain="UUUUUUAUCAUGGCGUAUCGGAAAACCGAUACCAGUACAGAAAUGUACCCUUGGCAGCGGCGUUUUACAUGAGGAUCACCCAUGU [Ex Theophylline A 4]" unit_name=nM numeric_readout=15.1
sequence_chain="CGUAUUGGAAACAGUACGAGUGAUCCGGUCCGAGGACCGGUACGGCCGCCACUCGAUAUAAAUAAACAUGAGGAUCACCCAUGUA [Ex Tryptophan A 12]" unit_name=nM numeric_readout=17.1
sequence_chain="AUACAUGAGGAUCACCCAUGUAUGGAUGAAGGAGCGACCAGAGGGUCAGGUAGGUCGCAUCACAUGAGGAUCACCCAUGUAGAAA [DOUBLE!!! :-D #11]" unit_name=nM numeric_readout=20.3
sequence_chain="GGCACGUACGGAAGGAGCGACUGUUCAACGUGGGUACAUGAGGAUCACCCAUGUCUCCGCAGUCAGGUAGGUCGCCGUACGUGCC [EAB NP+V+V2 #20]" unit_name=nM numeric_readout=15
sequence_chain="CCUCGGGACCGAAGGAGCGAGAUAACAACAAUGGGUCUCUACACAUGAGGAUCACCCAUGUCUCAGGUAGGUCGCGGUACCUUAG [Exclusion Arginine B GF23]" unit_name=nM numeric_readout=137

Data origin: the supplement of paper PMC9170038
